Test system: CEM cells HIV-1 protection, formazan growth assay
method: NCI AIDS Antiviral Assay;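 active = compounds giving half or more protection of infected cells from virus-caused growth loss, again on retest; inactive = the rest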
API: response.call in active, inactive

Worked examples follow.
Cc1cccc(C(C)C)c1NC(=O)CC1C(=O)Nc2ccccc2S1(=O)=O (stereo not given) :: inactive
Cc1ccc(NC(=O)C(=O)Cc2cc[n+]([O-])cc2)cc1 :: inactive
Cc1cn([C@H]2C[C@@H]3[C@@H](COC(CCc4ccccc4)N3O)O2)c(=O)[nH]c1=O (stereo not given in full) :: active
CCOC(=O)C1=C(C)N(Cc2ccccc2)C(C)=C(C(=O)OCC)C1c1ccccc1O :: inactive
N#CC(C#N)=C1SC(=Nc2ccccc2)C(=Nc2ccccc2)N1c1ccccc1 :: inactive
Cc1cc(=O)[nH]c(NN2C(Cl)C(=O)C2c2ccc(O)cc2)n1 (stereo not given) :: inactive

Hello, I am checking results. What call was entered for O=S(=O)(Cc1ccccc1)c1nnc(S(=O)(=O)c2ccc(Cl)cc2)s1 ?
inactive

Hello, I am checking results. What call was entered for N#Cc1nc2ccccc2nc1N1CCN(c2ccc([N+](=O)[O-])cc2)CC1 ?
inactive

In this assay, the call recorded for CN(C(=O)CCC(=O)O)c1ccccc1C(=O)O was what?
inactive

Entry C=C[C@H]1C=Cc2ccccc2[C@]1(C=O)CCC1(C)OCCO1 : call = ?
inactive

Reference source for all entries: PubChem BioAssay AID179
